Origin of measurements: ChEMBL document CHEMBL4002631

System: Mycobacterium tuberculosis
ASSAY_NOTES: Antimycobacterial activity against isoniazid/rifampicin/ethambutol-sensitive Mycobacterium tuberculosis H37Rv after 4 days by Alamar blue assay
Format: functional
ASSAY_CONDITIONS: 96 h
The reader will find reported MIC values listed item by item below.

COc1ccc(/C=C/C2=N[C@@H](Cc3ccccc3)CO2)cc1 : 13.6 µM
O=C(/C=C/c1ccccc1)N[C@H](CO)Cc1ccccc1 : 56.8 µM

Just so you know, measured MIC for CO[C@H]1/C=C/O[C@@]2(C)Oc3c(C)c(O)c4c(O)c(c(/C=N/N5CCN(C)CC5)c(O)c4c3C2=O)NC(=O)/C(C)=C\C=C\[C@H](C)[C@H](O)[C@@H](C)[C@@H](O)[C@@H](C)[C@H](OC(C)=O)[C@@H]1C came out at 4.8 µM

Just so you know, measured MIC for NNC(=O)c1ccncc1 came out at < 7.2 µM

====

Tested on: Mycobacterium tuberculosis
ASSAY_NOTES: Antimycobacterial activity against isoniazid/rifampicin/ethambutol-sensitive Mycobacterium tuberculosis H37Rv after 4 days by Alamar blue assay
Format: functional
ASSAY_CONDITIONS: 96 h
OBSERVED_PROPERTY: MIC (µM)
The reply should be a number in µM, with the unit left off.

Use the examples below as a reference point.
C(=C\c1cccs1)/C1=N[C@@H](Cc2ccccc2)CO1 : 29.7
CC[C@@H](CO)NCCN[C@@H](CC)CO [ETHAMBUTOL] : 39.1
Fc1ccc(/C=C/C2=N[C@@H](Cc3ccccc3)CO2)cc1 : 14.2

Just so you know, measured MIC for C(=C\c1ccccc1)/C1=N[C@@H](Cc2ccccc2)CO1 came out at 60.8

Just so you know, measured MIC for O=C(/C=C/c1ccc(OCc2ccccc2)cc1)N[C@H](CO)Cc1ccccc1 came out at 41.2

Just so you know, measured MIC for C(=C\c1ccc(OCc2ccccc2)cc1)/C1=N[C@@H](Cc2ccccc2)CO1 came out at 10.8

Just so you know, measured MIC for O=C(/C=C/c1cccs1)N[C@H](CO)Cc1ccccc1 came out at 55.6

Just so you know, measured MIC for COc1ccc(/C=C/C(=O)N[C@H](CO)Cc2ccccc2)cc1 came out at 25.6

Just so you know, measured MIC for Clc1ccc(/C=C/C2=N[C@@H](Cc3ccccc3)CO2)cc1 came out at 26.9

Just so you know, measured MIC for O=C(/C=C/c1ccc(F)cc1)N[C@H](CO)Cc1ccccc1 came out at 26.7

Just so you know, measured MIC for O=C(/C=C/c1ccc(Cl)cc1)N[C@H](CO)Cc1ccccc1 came out at 25.3
